tgt: human muscarinic acetylcholine M3 receptor (M3-ACh) (Homo sapiens, UniProt P20309)
Construct: expressed in transfected cells; host or cells: CHO-K1 (Chinese Hamster Ovary) cell membranes
Sequence (P20309 whole entry): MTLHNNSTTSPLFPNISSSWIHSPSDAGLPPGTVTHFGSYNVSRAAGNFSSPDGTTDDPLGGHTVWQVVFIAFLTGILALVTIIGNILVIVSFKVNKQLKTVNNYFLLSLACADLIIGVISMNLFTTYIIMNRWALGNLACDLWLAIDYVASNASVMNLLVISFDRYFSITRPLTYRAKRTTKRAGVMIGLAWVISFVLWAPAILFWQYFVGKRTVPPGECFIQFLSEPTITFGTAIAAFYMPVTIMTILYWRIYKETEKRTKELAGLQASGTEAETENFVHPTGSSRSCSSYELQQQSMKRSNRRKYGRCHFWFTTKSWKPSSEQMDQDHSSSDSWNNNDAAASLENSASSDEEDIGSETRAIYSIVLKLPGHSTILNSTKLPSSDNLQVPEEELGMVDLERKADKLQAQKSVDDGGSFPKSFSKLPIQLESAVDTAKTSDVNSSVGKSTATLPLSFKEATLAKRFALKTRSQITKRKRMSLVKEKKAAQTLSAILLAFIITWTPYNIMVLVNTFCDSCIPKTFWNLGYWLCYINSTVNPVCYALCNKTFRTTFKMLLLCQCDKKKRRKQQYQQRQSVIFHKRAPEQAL
run_description: Muscarinic 3 Receptor Binding Assay ([3H]NMS competition, SPA)
condition_set: [3H]NMS 0.1 nM, CHO-K1 cell membranes, 16 hours at room temperature; read-out: M3 pIC50 (converted)
Using IC50 as the sorting value, the categories are lower (below 3 nM), middle (3 nM to below 8 nM), upper (8 nM or more)

Ask: The entry to classify is CCCc1nc(C(=O)N2CCOC3(CCN(Cc4cc(F)cc(CCNC[C@H](O)c5ccc(O)c6[nH]c(=O)sc56)c4)CC3)C2)cs1 [Example 56, ditrifluoroacetate] ; which class holds it?
Reply: lower

Ask: Can you handle CC(C)c1nc(C(=O)N2CC(F)(F)OC3(CCN(Cc4cccc(CCNC[C@H](O)c5ccc(O)c6[nH]c(=O)ccc56)c4)CC3)C2)cs1 [Example 44, ditrifluoroacetate] next?
Reply: middle

Ask: Can you handle CC(C)c1nc(C(=O)N2CCOC3(CCN(Cc4ccc(F)c(CCNC[C@H](O)c5ccc(O)c6[nH]c(=O)ccc56)c4F)CC3)C2)cs1 [Example 46, ditrifluoroacetate] next?
Reply: middle

Ask: Can you handle Cc1nc(C(=O)N2CCOC3(CCN(Cc4cccc(CCNC[C@H](O)c5ccc(O)c6[nH]c(=O)ccc56)c4)CC3)C2)cs1 [Example 7, ditrifluoroacetate] next?
Reply: lower

Ask: Can you handle Cc1ccc(C(=O)N2CCOC3(CCN(Cc4cc(CCNC[C@H](O)c5ccc(O)c6[nH]c(=O)sc56)ccc4F)CC3)C2)s1 [Example 29, ditrifluoroacetate] next?
Reply: middle

Ask: Can you handle Cc1ccc(C(=O)N2CCOC3(CCN(Cc4ccc(F)c(CCNC[C@H](O)c5ccc(O)c6[nH]c(=O)sc56)c4F)CC3)C2)s1 [Example 34, ditrifluoroacetate] next?
Reply: upper

Ask: Can you handle O=C(c1ccc2sccc2c1)N1CCOC2(CCN(Cc3cccc(CCNC[C@H](O)c4ccc(O)c5[nH]c(=O)sc45)c3F)CC2)C1 [Example 68, ditrifluoroacetate] next?
Reply: upper

Ask: Can you handle CCc1cc(C(=O)N2CCOC3(CCN(Cc4ccc(F)c(CCNC[C@H](O)c5ccc(O)c6[nH]c(=O)sc56)c4)CC3)C2)cs1 [Example 99, ditrifluoroacetate] next?
Reply: lower

----------
tgt: Adrenergic β2 (H292 cells) (Homo sapiens)
Construct: endogenous in cells; host or cells: H292 cells
run_description: Assay for Adrenergic β2 Mediated cAMP Production (concentration response, AlphaScreen cAMP detection)
Format: cell-based
condition_set: cAMP production, 60 minutes at room temperature, 300 μM rolipram, read-out: β2 pEC50 (converted)
Structures can show the parent of a compound that is named as a salt.
Using EC50 as the sorting value, the categories are lower bin = under 10 nM, middle bin = from 10 nM up to 30 nM, upper bin = 30 nM and over

Ask: The entry to classify is Cc1nc(C(=O)N2CCOC3(CCN(CCCOc4cccc(CNC[C@H](O)c5ccc(O)c6[nH]c(=O)ccc56)c4)CC3)C2)cs1 [Example 95, ditrifluoroacetate] ; which class holds it?
Reply: upper bin

Ask: Can you handle CC(C)c1cc(C(=O)N2CCOC3(CCN(Cc4cccc(C[C@@H](C)NC[C@H](O)c5ccc(O)c6[nH]c(=O)ccc56)c4)CC3)C2)cs1 [Example 276, ditrifluoroacetate] next?
Reply: upper bin

Ask: Can you handle Cc1nc(C(=O)N2CCOC3(CCN(Cc4cccc(CCNC[C@H](O)c5ccc(O)c6[nH]c(=O)sc56)c4)CC3)CC2)cs1 [Example 89, ditrifluoroacetate] next?
Reply: lower bin

Ask: Can you handle O=C(c1csc(-c2ccccc2)n1)N1CCOC2(CCN(CCOc3ccc(CNC[C@H](O)c4ccc(O)c5[nH]c(=O)sc45)cc3)CC2)C1 [Example 112, ditrifluoroacetate] next?
Reply: upper bin

Ask: Can you handle CC(C)c1nc(C(=O)N2CCOC3(CCN(Cc4ccc(Cl)c(CCNC[C@H](O)c5ccc(O)c6[nH]c(=O)sc56)c4)CC3)C2)cs1 [Example 75, ditrifluoroacetate] next?
Reply: middle bin

Ask: Can you handle CC(C)c1nc(C(=O)N2CCOC3(CCN(CCCCCCC(C)(C)CCNC[C@H](O)c4ccc(O)c5[nH]c(=O)sc45)CC3)C2)cs1 [Example 279, formate] next?
Reply: upper bin

Ask: Can you handle CC(C)(C)c1nc(C(=O)N2CCOC3(CCN(Cc4cc(F)cc(CCNC[C@H](O)c5ccc(O)c6[nH]c(=O)sc56)c4)CC3)C2)cs1 [Example 50, ditrifluoroacetate] next?
Reply: lower bin

Ask: Can you handle CCc1cc(C(=O)N2CCOC3(CCN(Cc4ccc(F)c(CCNC[C@H](O)c5ccc(O)c6[nH]c(=O)sc56)c4)CC3)C2)cs1 [Example 99, ditrifluoroacetate] next?
Reply: lower bin

Ask: Can you handle O=C(c1csc(C2CCCC2)n1)N1CCOC2(CCN(Cc3cc(F)cc(CCNC[C@H](O)c4ccc(O)c5[nH]c(=O)sc45)c3)CC2)C1 [Example 59, ditrifluoroacetate] next?
Reply: middle bin

Ask: Can you handle CC(C)(C)CC(=O)N1CCOC2(CCN(Cc3cc(F)cc(CCNC[C@H](O)c4ccc(O)c5[nH]c(=O)sc45)c3)CC2)C1 [Example 130] next?
Reply: middle bin

Ask: Can you handle Cc1ccc(C(=O)N2CCOC3(CCN(CCCCCCCCCNC[C@H](O)c4ccc(O)c5[nH]c(=O)sc45)CC3)C2)s1 [Example 111, formate] next?
Reply: upper bin

Ask: Can you handle O=C(c1csc(C2CCCC2)n1)N1CCOC2(CCN(CCCCCCCCCNC[C@H](O)c3ccc(O)c4[nH]c(=O)sc34)CC2)C1 [Example 221] next?
Reply: upper bin

----------
tgt: Adrenergic β2 (H292 cells) (Homo sapiens, UniProt P07550)
Construct: endogenous in cells; host or cells: H292 cells
Sequence (P07550 whole entry): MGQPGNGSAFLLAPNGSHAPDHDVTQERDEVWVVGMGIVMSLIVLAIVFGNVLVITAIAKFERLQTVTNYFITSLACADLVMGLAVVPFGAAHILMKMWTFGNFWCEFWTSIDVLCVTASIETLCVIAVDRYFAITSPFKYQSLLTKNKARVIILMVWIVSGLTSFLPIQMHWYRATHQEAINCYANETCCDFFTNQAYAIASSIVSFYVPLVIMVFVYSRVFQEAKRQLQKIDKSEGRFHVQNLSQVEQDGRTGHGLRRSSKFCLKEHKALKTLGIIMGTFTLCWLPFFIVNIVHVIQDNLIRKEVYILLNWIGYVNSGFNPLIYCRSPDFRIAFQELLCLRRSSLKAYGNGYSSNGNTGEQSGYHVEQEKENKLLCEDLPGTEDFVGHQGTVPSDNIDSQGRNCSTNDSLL
run_description: Assay for Adrenergic β2 Mediated cAMP Production (concentration response, AlphaScreen cAMP detection)
Type: cell-based
condition_set: cAMP production, 60 minutes at room temperature, 300 μM rolipram, read-out: β2 pEC50 (converted)
Counter-ions that a name gives are not always drawn.
Provide the reported EC50 of each item.
Expressed in nM, but write only the number.

Ask: Would you kindly share the measured EC50 for CC(C)c1nc(C(=O)N2CCOC3(CCN(Cc4cccc(OCCNC[C@H](O)c5ccc(O)c6[nH]c(=O)sc56)c4)CC3)C2)cs1 [Example 64, ditrifluoroacetate] ?
Reply: 50.1

Ask: Can you handle Cc1ccc(C(=O)N2CCOC3(CCN(Cc4cc(CCNC[C@H](O)c5ccc(O)c6[nH]c(=O)sc56)cs4)CC3)C2)s1 [Example 27, ditrifluoroacetate] next?
Reply: 1.26

Ask: Can you handle Cc1nc(C(=O)N2CCOC3(CCN(CCOc4ccc(CNC[C@H](O)c5ccc(O)c6[nH]c(=O)sc56)cc4)CC3)C2)cs1 [Example 1, ditrifluoroacetate] next?
Reply: 63.1

Ask: Can you handle CC(C)c1ccc(C(=O)N2CCOC3(CCN(Cc4cccc(CCNC[C@H](O)c5ccc(O)c6[nH]c(=O)sc56)c4F)CC3)C2)s1 [Example 73, ditrifluoroacetate] next?
Reply: 7.94

Ask: Can you handle CCCc1nc(C(=O)N2CCOC3(CCN(Cc4cccc(CCNC[C@H](O)c5ccc(O)c6[nH]c(=O)sc56)c4)CC3)C2)cs1 [Example 87, ditrifluoroacetate] next?
Reply: 3.16

Ask: Can you handle CC(C)c1nc(C(=O)N2CCOC3(CCN(Cc4cc(CCNC[C@H](O)c5ccc(O)c6[nH]c(=O)sc56)cs4)CC3)C2)cs1 [Example 36, ditrifluoroacetate] next?
Reply: 6.31

Ask: Can you handle Cc1nc(CC(=O)N2CCOC3(CCN(CCCCCCCCCNC[C@H](O)c4ccc(O)c5[nH]c(=O)sc45)CC3)C2)cs1 [Example 210] next?
Reply: 15.8

Ask: Can you handle CC(C)c1nc(C(=O)N2CCOC3(CCN(CCCCCCCCCNC[C@H](O)c4ccc(O)c5[nH]c(=O)sc45)CC3)C2)cs1 [Example 109, formate] next?
Reply: 7.94

Ask: Can you handle CCc1cc(C(=O)N2CCOC3(CCN(Cc4cccc(CCNC[C@H](O)c5ccc(O)c6[nH]c(=O)sc56)c4)CC3)C2)cs1 [Example 86, ditrifluoroacetate] next?
Reply: 2.51

Ask: Can you handle CC(C)c1nc(C(=O)N2CCOC3(CCN(Cc4ccc(F)c(CCNC[C@H](O)c5ccc(O)c6[nH]c(=O)sc56)c4F)CC3)C2)cs1 [Example 45, ditrifluoroacetate] next?
Reply: 10

Ask: Can you handle CC(C)c1nc(C(=O)N2CCOC3(CCN(Cc4cc(CCNC[C@H](O)c5ccc(O)c6[nH]c(=O)sc56)ccc4Cl)CC3)C2)cs1 [Example 61, ditrifluoroacetate] next?
Reply: 63.1

Ask: Can you handle CCC(CC)c1nc(C(=O)N2CCOC3(CCN(Cc4cccc(CCNC[C@H](O)c5ccc(O)c6[nH]c(=O)ccc56)c4)CC3)C2)cs1 [Example 274, ditrifluoroacetate] next?
Reply: 25.1
